- Target system: human TLR9 (Homo sapiens (Human))
- Method: TLR9 inhibition reporter assay (HEK-Blue SEAP)
- Test parameters: read-out: TLR9 IC50; HEK-Blue human TLR9 cells, ODN2006 5 nM
Property measured: pIC50
Give bare numbers, as −log10 of the molar value.

Lab note: each molecule below needs its pIC50 filled in.
1. Cc1c(-c2[nH]c3ccc(N4CCN(C(=O)CN5CCCC5)C[C@H]4C)nc3c2C(C)C)cn2ncnc2c1C
2. Cc1c(-c2[nH]c3ccc(N4C5CNCC4C5)nc3c2C(C)C)cn2ncnc2c1C

Response line:
1. 5.25
2. 4.94

###

- Target system: UniProt Q9NR96
- Method: TLR9 inhibition reporter assay (HEK-Blue SEAP)
- Test parameters: read-out: TLR9 IC50; HEK-Blue cells overexpressing human TLR9, ODN2006 5 nM stimulation, SEAP reporter
I'd appreciate it if you could supply IC50 values for the items below.

Consider the following illustrative entries.
* CC(C)c1c(-c2cn(C)c3ncccc23)[nH]c2ccc(N3CC(NCC(=O)N(C)C)C3)nc12 [Example 37] | > 50 µM
* Cc1c(-c2[nH]c3ccc(N4CCN(CC(=O)N(C)C)CC4)nc3c2C(C)C)cn2ncnc2c1C [Example 144] | > 50 µM

Prompt line: Which IC50 value is on record for Cc1c(-c2[nH]c3ccc(N4CCN(C5COC5)CC4=O)nc3c2C(C)C)cn2ncnc2c1C [Example 140] ?
Response line: > 50 µM

###

- Target system: human TLR9 (Homo sapiens (Human), UniProt Q9NR96)
- Sequence (Q9NR96 26-1032): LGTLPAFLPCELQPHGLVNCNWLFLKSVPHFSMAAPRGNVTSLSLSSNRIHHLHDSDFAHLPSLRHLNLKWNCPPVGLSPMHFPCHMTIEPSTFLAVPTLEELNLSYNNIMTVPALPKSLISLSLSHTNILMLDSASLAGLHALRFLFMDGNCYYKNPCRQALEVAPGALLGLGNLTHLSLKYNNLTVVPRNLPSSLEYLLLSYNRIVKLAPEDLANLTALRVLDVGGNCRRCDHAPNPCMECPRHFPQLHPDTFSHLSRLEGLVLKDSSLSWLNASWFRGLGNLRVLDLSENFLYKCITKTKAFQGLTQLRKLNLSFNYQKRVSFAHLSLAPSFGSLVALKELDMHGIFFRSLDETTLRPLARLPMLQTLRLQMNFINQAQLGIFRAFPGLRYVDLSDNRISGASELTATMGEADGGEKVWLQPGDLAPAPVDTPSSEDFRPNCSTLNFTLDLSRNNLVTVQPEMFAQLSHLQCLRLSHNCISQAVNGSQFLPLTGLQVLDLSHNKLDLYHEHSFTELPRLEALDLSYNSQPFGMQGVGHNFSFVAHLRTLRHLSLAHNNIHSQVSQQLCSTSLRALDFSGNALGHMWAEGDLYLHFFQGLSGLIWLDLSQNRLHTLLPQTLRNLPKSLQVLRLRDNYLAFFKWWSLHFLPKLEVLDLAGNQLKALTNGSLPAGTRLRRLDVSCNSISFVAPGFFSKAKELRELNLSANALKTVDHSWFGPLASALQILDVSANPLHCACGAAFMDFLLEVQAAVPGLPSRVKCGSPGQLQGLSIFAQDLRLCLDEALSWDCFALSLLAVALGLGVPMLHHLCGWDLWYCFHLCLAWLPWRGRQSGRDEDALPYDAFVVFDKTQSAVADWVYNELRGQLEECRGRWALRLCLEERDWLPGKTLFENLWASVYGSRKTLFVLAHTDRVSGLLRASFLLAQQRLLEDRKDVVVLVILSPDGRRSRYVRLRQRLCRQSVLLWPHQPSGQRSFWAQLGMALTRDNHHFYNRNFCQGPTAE
- Method: TLR9 inhibition reporter assay (HEK-Blue SEAP);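 further: SEAP driven by an IFN-β minimal promoter with NF-κB and AP-1 sites, read after 22 h, compounds dosed 0.05 nM–50 µM, inhibition scaled between agonist plus DMSO and reference-inhibitor wells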
- Test parameters: read-out: TLR9 IC50; HEK-Blue cells overexpressing human TLR9, ODN2006 5 nM stimulation, SEAP reporter
I'd appreciate it if you could supply IC50 values for the items below.

Consider the following illustrative entries.
• CC(C)c1c(-c2cn(C)c3ncccc23)[nH]c2ccc(C3CCC(NCC(C)(C)S(C)(=O)=O)CC3)nc12 (stereo not shown) [Example 278] = 837 nM
• Cc1c(-c2[nH]c3ccc(C4CCC(N5CCC[C@@H]5CO)CC4)nc3c2C(C)C)cn2ncnc2c1C (stereo partly shown) [Example 377] = 767 nM
• Cc1c(-c2[nH]c3ccc(N4CCC(N(C)Cc5csnn5)CC4)nc3c2C(C)C)cn2ncnc2c1C = 11600 nM

Turning to the following compound.
Prompt line: Which IC50 value is on record for Cc1c(-c2[nH]c3ccc(N4CCN(CC(=O)N(C)C)CC4=O)nc3c2C(C)C)cn2ncnc2c1C ?
Response line: > 50000 nM

###

- Target system: human TLR8 (Homo sapiens (Human))
- Sequence (Q9NR97 27-1041): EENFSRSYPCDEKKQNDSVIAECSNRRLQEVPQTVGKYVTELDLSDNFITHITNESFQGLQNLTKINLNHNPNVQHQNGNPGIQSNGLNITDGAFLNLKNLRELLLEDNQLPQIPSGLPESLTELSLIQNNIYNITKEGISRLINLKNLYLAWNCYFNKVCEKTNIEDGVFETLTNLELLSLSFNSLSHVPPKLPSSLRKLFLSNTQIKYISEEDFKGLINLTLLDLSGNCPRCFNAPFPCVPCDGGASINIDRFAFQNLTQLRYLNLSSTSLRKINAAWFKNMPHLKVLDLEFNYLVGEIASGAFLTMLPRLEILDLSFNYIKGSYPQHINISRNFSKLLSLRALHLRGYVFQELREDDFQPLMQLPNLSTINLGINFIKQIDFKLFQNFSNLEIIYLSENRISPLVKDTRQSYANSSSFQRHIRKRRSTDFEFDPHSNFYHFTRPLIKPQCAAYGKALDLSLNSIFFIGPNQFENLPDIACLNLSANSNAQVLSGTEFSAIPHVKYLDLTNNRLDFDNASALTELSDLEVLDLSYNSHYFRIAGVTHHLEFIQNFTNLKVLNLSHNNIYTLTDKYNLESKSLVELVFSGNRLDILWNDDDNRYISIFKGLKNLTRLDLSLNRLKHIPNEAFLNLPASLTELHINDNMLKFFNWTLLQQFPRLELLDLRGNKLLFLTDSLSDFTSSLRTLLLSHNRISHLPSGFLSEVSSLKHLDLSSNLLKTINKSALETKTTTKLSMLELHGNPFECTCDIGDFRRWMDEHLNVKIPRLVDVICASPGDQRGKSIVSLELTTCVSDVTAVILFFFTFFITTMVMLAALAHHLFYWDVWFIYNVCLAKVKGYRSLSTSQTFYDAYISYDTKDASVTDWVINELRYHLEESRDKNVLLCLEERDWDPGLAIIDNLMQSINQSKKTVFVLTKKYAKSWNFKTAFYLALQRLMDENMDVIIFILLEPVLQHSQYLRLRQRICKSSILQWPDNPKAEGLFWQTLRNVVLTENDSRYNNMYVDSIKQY
- Method: TLR8 inhibition reporter assay (HEK-Blue SEAP)
- Test parameters: read-out: TLR8 IC50; HEK-Blue cells overexpressing human TLR8, R848 15.9 μM stimulation, SEAP reporter
IC50 under 8 nM gets True, anything at or over 8 nM gets False.

Solved cases below.
• COc1cc(-c2[nH]c3ccc(C4CCC(N5CCC[C@H]5CO)CC4)nc3c2C(C)C)cn2ncnc12 (some centres unmarked) [Example 173] = False
• CCn1cc(-c2[nH]c3ccc(C4CCC(NC5CCOCC5)CC4)nc3c2C(C)C)c2cccnc21 (centres unmarked) [Example 289] = False
• CC(C)c1c(-c2cc(CO)c3ncnn3c2)[nH]c2ccc(C3CCC(NCC(=O)N(C)C)CC3)nc12 (centres unmarked) [Example 222] = False
• Cc1c(-c2[nH]c3ccc(N4CCN(CCC(N)=O)CC4)nc3c2C(C)C)cn2ncnc2c1C = True
• COc1cc(-c2[nH]c3ccc(N4CCN(C(C)C)CC4)nc3c2C(C)C)cn2ncnc12 = True
• COc1cc(-c2[nH]c3ccc(N4CCN(C5CCS(=O)(=O)CC5)CC4)nc3c2C(C)C)cn2ncnc12 = True
• Cc1c(-c2[nH]c3ccc(N4CCN(C(=O)CN(C)C)CC4)nc3c2C(C)C)cn2ncnc2c1C = True
• COc1cc(-c2[nH]c3cc(C)c(C4CCC(N)CC4)nc3c2C(C)C)cn2ncnc12 (centres unmarked) [Example 323] = False

Prompt line: Lab log: compare recorded IC50 with 8 nM; is it strictly lower for COc1cc(-c2[nH]c3ccc(N4CCN(C(=O)CN(C)C)CC4)nc3c2C(C)C)cn2ncnc12 ?
Response line: True

Prompt line: Lab log: compare recorded IC50 with 8 nM; is it strictly lower for CC(C)c1c(-c2cc(CO)c3ncnn3c2)[nH]c2ccc(C3CCC(NCC(=O)N(C)C)CC3)nc12 (centres unmarked) [Example 216] ?
Response line: False

###

- Target system: human TLR7 (Homo sapiens (Human))
- Method: TLR7 inhibition reporter assay (HEK-Blue SEAP)
- Assay type: cell-based
- Test parameters: HEK-Blue cells overexpressing human TLR7, SEAP reporter, gardiquimod 7.5 μM
Property measured: pIC50
Give bare numbers, as −log10 of the molar value.

Consider the following illustrative entries.
* Cc1c(-c2[nH]c3ccc(C4CCC(NCCS(N)(=O)=O)CC4)nc3c2C(C)C)cn2ncnc2c1C (stereo not shown) [Example 447] | 8.77
* COc1cc(-c2[nH]c3ccc(C4CN(C(C)C)CCO4)nc3c2C(C)C)cn2ncnc12 (stereo not shown) [Example 660] | 8.48
* Cc1c(-c2[nH]c3ccc(C4CN(C(=O)CN(C)C)CCO4)nc3c2C(C)C)cn2ncnc2c1C (stereo not shown) [Example 663] | 8.46
* COc1cc(-c2[nH]c3ccc(C4CCC(NC(C)C5CC5)C4)nc3c2C(C)C)cn2ncnc12 (stereo not shown) [Example 724] | 9.20
* Cc1c(-c2[nH]c3ccc(C4CCC(N5CCCC5)CC4)nc3c2C(C)C)cn2ncnc2c1C (stereo not shown) [Example 407] | 8.14

Lab note: each molecule below needs its pIC50 filled in.
1. COc1cc(-c2[nH]c3ccc(C4CCNCC4)nc3c2C(C)C)cn2ncnc12 [Example 520]
2. Cc1c(-c2[nH]c3ccc(C4CNC4)nc3c2C(C)C)cn2ncnc2c1C [Example 649]
3. COCCNC1CCC(c2ccc3[nH]c(-c4cn5ncnc5c(C)c4C)c(C(C)C)c3n2)CC1 (stereo not shown) [Example 429]

Response line:
1. 9.10
2. 8.21
3. 8.47

Lab note: each molecule below needs its pIC50 filled in.
1. Cc1c(-c2[nH]c3ccc(C4CCC(N(C)C5COC5)CC4)nc3c2C(C)C)cn2ncnc2c1C (single isomer, unassigned) [Example 424]
2. COc1cc(-c2[nH]c3cc(C)c(C4CCN(C5CCOCC5)CC4)nc3c2C(C)C)cn2ncnc12 [Example 589]

Response line:
1: 9.05; 2: 9.60

Lab note: each molecule below needs its pIC50 filled in.
1. COc1cc(-c2[nH]c3ccc(C4CN(C(=O)CN(C)C)C4)nc3c2C(C)C)cn2ncnc12 [Example 652]
2. Cc1c(-c2[nH]c3ccc(N4CCN(C(C)C)[C@@H](C)C4)nc3c2C(C)C)cn2ncnc2c1C [Example 792]

Response line:
8.52
8.40

###

I'd appreciate it if you could supply log10(IC50) values for the items below.
- Target system: UniProt Q9NR97
- Method: TLR8 inhibition reporter assay (HEK-Blue SEAP)
- Test parameters: read-out: TLR8 IC50; HEK-Blue cells overexpressing human TLR8, R848 15.9 μM stimulation, SEAP reporter
Values are log10 of IC50 in nM.

- COc1cc(-c2[nH]c3cc(C)c(C4CCC(N5CCC5)CC4)nc3c2C(C)C)cn2ncnc12 (stereo not shown) [Example 325]: 1.58
- CC(C)c1c(-c2cn(C)c3ncncc23)[nH]c2ccc(C3CCC(NCC(=O)N(C)C)CC3)nc12 (stereo not shown): 0.84
- Cc1c(-c2[nH]c3ccc(C4CCC(N(C)C5COC5)CC4)nc3c2C(C)C)cn(C)c(=O)c1C (stereo not shown) [Example 249]: 0.86
- COc1cc(-c2[nH]c3cc(C)c(C4CCC(NCC(F)F)CC4)nc3c2C(C)C)cn2ncnc12 (stereo not shown) [Example 324]: 2.38

Lab note: each molecule below needs its log10(IC50) filled in.
1. Cc1c(-c2[nH]c3ccc(N4CCC(N(C)Cc5cn(C)nn5)CC4)nc3c2C(C)C)cn2ncnc2c1C
2. COc1cc(-c2[nH]c3ccc(C4CCC(NCC5(S(C)(=O)=O)CC5)CC4)nc3c2C(C)C)cn2ncnc12 (stereo not shown) [Example 223]
3. Cc1c(-c2[nH]c3ccc(C4CCC(NC(C)C)CC4)nc3c2C(C)C)cn2ncnc2c1C (stereo not shown) [Example 363]

Response line:
1: -0.10; 2: 0.15; 3: 0.82

###

- Target system: human TLR7 (Homo sapiens (Human), UniProt Q9NYK1)
- Sequence (Q9NYK1 27-1049): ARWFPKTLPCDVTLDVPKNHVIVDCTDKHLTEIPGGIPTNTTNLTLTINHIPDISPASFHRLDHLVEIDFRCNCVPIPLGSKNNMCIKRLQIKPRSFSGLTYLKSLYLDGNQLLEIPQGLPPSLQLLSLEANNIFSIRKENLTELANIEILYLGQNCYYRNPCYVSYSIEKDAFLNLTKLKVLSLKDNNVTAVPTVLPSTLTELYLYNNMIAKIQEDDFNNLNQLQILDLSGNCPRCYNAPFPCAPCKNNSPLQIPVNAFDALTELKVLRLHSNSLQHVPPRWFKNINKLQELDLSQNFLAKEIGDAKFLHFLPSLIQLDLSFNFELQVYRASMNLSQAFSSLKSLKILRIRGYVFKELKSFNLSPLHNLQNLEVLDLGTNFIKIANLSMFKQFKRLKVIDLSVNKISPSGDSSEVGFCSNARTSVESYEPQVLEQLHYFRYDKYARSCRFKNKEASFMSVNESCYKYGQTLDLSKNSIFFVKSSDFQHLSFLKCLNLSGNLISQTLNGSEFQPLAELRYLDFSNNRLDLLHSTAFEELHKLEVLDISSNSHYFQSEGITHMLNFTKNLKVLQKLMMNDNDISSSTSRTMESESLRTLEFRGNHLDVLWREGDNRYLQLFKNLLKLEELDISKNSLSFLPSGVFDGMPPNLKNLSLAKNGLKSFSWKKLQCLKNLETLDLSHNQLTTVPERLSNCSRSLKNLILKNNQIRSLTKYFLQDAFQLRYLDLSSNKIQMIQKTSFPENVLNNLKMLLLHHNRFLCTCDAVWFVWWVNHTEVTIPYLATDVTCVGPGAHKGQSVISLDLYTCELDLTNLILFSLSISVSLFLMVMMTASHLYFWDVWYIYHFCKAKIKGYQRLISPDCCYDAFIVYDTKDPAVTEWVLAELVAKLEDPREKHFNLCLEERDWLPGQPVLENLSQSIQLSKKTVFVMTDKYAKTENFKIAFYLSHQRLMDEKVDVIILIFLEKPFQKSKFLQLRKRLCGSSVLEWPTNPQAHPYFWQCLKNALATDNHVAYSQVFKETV
- Method: TLR7 inhibition reporter assay (HEK-Blue SEAP)
- Assay type: cell-based
- Test parameters: HEK-Blue cells overexpressing human TLR7, gardiquimod 7.5 μM stimulation, SEAP reporter
Note to self: class = bucket of IC50, per lo: < 2 nM; med: ≥ 2 nM and < 4 nM; hi: ≥ 4 nM

• Cc1c(-c2[nH]c3ccc(C4CCC(N5CCCC5)CC4)nc3c2C(C)C)cn2ncnc2c1C (stereo not drawn) = lo
• COc1cc(-c2[nH]c3ccc(N4CCN(CCS(C)(=O)=O)CC4)nc3c2C(C)C)cn2ncnc12 = hi
• COc1cc(-c2[nH]c3cc(C)c(C4CCC(NC5COC5)CC4)nc3c2C(C)C)cn2ncnc12 (stereo not drawn) [Example 309] = lo
• COc1cc(-c2[nH]c3ccc(N4CC(N(C)C)C4)nc3c2C(C)C)cn2ncnc12 = med

Prompt line: Please report the category associated with CC(C)c1c(-c2cc(CO)c3ncnn3c2)[nH]c2ccc(C3CCC(NCc4c[nH]nn4)CC3)nc12 (stereo not drawn) [Example 221] , nothing else.
Response line: med

Prompt line: Please report the category associated with CC(C)c1c(-c2cn(C)c3ncccc23)[nH]c2ccc(N3CCC(N(CC#N)CC#N)CC3)nc12 [Example 52] , nothing else.
Response line: hi

Prompt line: Please report the category associated with CC(C)c1c(-c2cn(C)c3ncncc23)[nH]c2ccc(N3CCNCC3)nc12 , nothing else.
Response line: lo

Prompt line: Please report the category associated with COc1cc(-c2[nH]c3cc(C)c(C4CCC(N(C)C5COC5)CC4)nc3c2C(C)C)cn2ncnc12 (stereo not drawn) [Example 330] , nothing else.
Response line: lo

Prompt line: Please report the category associated with Cc1c(-c2[nH]c3ccc(N4CCC(N(C)C5CCC5)CC4)nc3c2C(C)C)cn2ncnc2c1C , nothing else.
Response line: lo

Prompt line: Please report the category associated with COc1cc(-c2[nH]c3ccc(C4CCC(N(C)CCC#N)CC4)nc3c2C(C)C)cn2ncnc12 (stereo not drawn) [Example 166] , nothing else.
Response line: lo

Prompt line: Please report the category associated with CC(C)c1c(-c2cn(C)c3ncncc23)[nH]c2ccc(N3CCN(C(C)C)CC3)nc12 , nothing else.
Response line: hi

Prompt line: Please report the category associated with CNC1CN(c2ccc3[nH]c(-c4cn5ncnc5c(C)c4C)c(C(C)C)c3n2)C1 [Example 20] , nothing else.
Response line: med

Prompt line: Please report the category associated with COc1cc(-c2[nH]c3ccc(C4CCC(N(C)Cc5ncccn5)CC4)nc3c2C(C)C)cn2ncnc12 (stereo not drawn) [Example 208] , nothing else.
Response line: med

Prompt line: Please report the category associated with COc1cc(-c2[nH]c3cc(C)c(C4CCC(NCC5(C)COC5)CC4)nc3c2C(C)C)cn2ncnc12 (stereo not drawn) [Example 315] , nothing else.
Response line: lo

Prompt line: Please report the category associated with Cc1c(-c2[nH]c3ccc(N4CCC(NCC5(S(C)(=O)=O)CC5)C4)nc3c2C(C)C)cn2ncnc2c1C (stereo not drawn) , nothing else.
Response line: hi

Prompt line: Please report the category associated with CC(C)c1c(-c2cc(CO)c3ncnn3c2)[nH]c2ccc(C3CCC(NC4COC4)CC3)nc12 (stereo not drawn) [Example 220] , nothing else.
Response line: hi

Taken from patent US10544143B2.
